- Method summary: RP, Waters ACQUITY UPLC BEH C18, 100 × 1 mm, 1.7 µm, 50 °C, 0.3 mL/min, estimated dead time 0.17 min; A: water + 10 mM ammonium bicarbonate; B: 10% water + 90% methanol + 10 mM ammonium bicarbonate; gradient (min/%B) 0/0 15/100 21/100 22/0 30/0
- Reported conditions: stereoisomer not certain
Reported property: LC retention time (min)

Previously resolved entries follow.
- Compound: "COC(=O)CC(O)(CCCC(C)(C)O)C(=O)OC1C(OC)=CC23CCCN2CCc2cc4c(cc2C13)OCO4 (stereo not drawn) [Homoharringtonine]"
  LC retention time, min: 14
- Compound: "CCN(CC)C(=O)c1cccc(C)c1 [DEET]"
  LC retention time, min: 13.4
- Compound: "C=C1CC(=CC)C(=O)OC2CC[N+]3([O-])CC=C(COC(=O)C1(C)O)C23 (stereo not drawn) [Seneciphylline N-oxide]"
  LC retention time, min: 8.91
- Compound: "O=c1c(O)c(-c2ccc(O)cc2)oc2cc(O)cc(O)c12 [Kaempferol]"
  LC retention time, min: 10.1
- Compound: "CCCNC(C)C(=O)Nc1ccccc1C (stereo not drawn) [Prilocaine]"
  LC retention time, min: 13.8
- Compound: "CC(Oc1ccc(Cl)cc1Cl)C(=O)O (stereo not drawn) [Dichlorprop]"
  LC retention time, min: 11.8

[A] CC(=O)OC1CCN2CC=C(COC(=O)C(O)(C(C)C)C(C)O)C12 (stereo not drawn) [7-Acetyllycopsamine]
[B] CC(C)OC(=O)C(C)(C)Oc1ccc(C(=O)c2ccc(Cl)cc2)cc1 [Fenofibrate]
Consider entries A and B . Which has the numerically lower LC retention time? The response must carry the label of the picked entry. A
(A: 11.8 min, B: 17.3 min)

###

- Method summary: RP, Waters ACQUITY UPLC BEH C18, 100 × 1 mm, 1.7 µm, 50 °C, 0.3 mL/min, estimated dead time 0.17 min; A: water + 10 mM ammonium bicarbonate; B: 10% water + 90% methanol + 10 mM ammonium bicarbonate; gradient (min/%B) 0/0 15/100 21/100 22/0 30/0
- Reported conditions: stereoisomer not certain
Reported property: LC retention time (min)

- Molecule: "COc1ccc(C2Sc3ccccc3N(CCN(C)C)C(=O)C2OC(C)=O)cc1 (centres undefined)"
  LC retention time, min: 15.5
- Molecule: "CC1CC2(OC2C)C(=O)OC2CCN3CC=C(COC(=O)C1(C)O)C23 (centres undefined)"
  LC retention time, min: 10.1
- Molecule: "CC12CCC3c4ccc(O)cc4CCC3C1CCC2=O (centres undefined)"
  LC retention time, min: 14.2
- Molecule: "COc1ccc(Cl)cc1C(=O)NCCc1ccc(S(=O)(=O)NC(=O)NC2CCCCC2)cc1 [Glibenclamide]"
  LC retention time, min: 13.9
- Molecule: "CC1CCCC(O)CCCC=Cc2cc(O)cc(O)c2C(=O)O1 (centres undefined)"
  LC retention time, min: 13.3

[A] CC12CCC3c4ccc(O)cc4CCC3C1CC(O)C2O (centres undefined)
[B] CCCCCC(C)OC(=O)COc1ccc(Cl)c2cccnc12 (centres undefined)
Consider entries A and B . Which has the numerically lower LC retention time? The response must carry the label of the picked entry. A

###

- Method summary: RP, Waters ACQUITY UPLC BEH C18, 100 × 1 mm, 1.7 µm, 50 °C, 0.3 mL/min, estimated dead time 0.17 min; A: water + 10 mM ammonium bicarbonate; B: 10% water + 90% methanol + 10 mM ammonium bicarbonate; gradient (min/%B) 0/0 15/100 21/100 22/0 30/0
- Reported conditions: stereoisomer not certain
Reported property: LC retention time (min)

Previously resolved entries follow.
- Compound: "Nc1ncnc2nc[nH]c12 [Adenine]"
  Unit tag: "min"
  LC retention time: 2.55
- Compound: "O=C(Nc1ccc(Cl)c(Cl)c1)c1cc(Cl)cc(Cl)c1O [Tetrachlorosalicylanilide]"
  Unit tag: "min"
  LC retention time: 14.9
- Compound: "O=C(Nc1ccccc1)Nc1ccccc1Cl [1-(2-CHLOROPHENYL)-3-PHENYLUREA]"
  Unit tag: "min"
  LC retention time: 14.2

[A] CC12CCC(=O)C=C1C=CC1C2CCC2(C)C1CCC21CCC(=O)O1 (stereo not drawn) [Canrenone]
[B] CC(Oc1c(Cl)cc(Cl)cc1Cl)C(=O)O (stereo not drawn) [2,4,6-Fenoprop]
Which of the two gives a bigger number for LC retention time: A or B ? The response must carry the label of the picked entry. A
